- studyTarget: human GLP-1R (SNAP-GLP-1R expressed in HEK293 cells) (human) (UniProt P43220)
- Sequence (P43220 24-463): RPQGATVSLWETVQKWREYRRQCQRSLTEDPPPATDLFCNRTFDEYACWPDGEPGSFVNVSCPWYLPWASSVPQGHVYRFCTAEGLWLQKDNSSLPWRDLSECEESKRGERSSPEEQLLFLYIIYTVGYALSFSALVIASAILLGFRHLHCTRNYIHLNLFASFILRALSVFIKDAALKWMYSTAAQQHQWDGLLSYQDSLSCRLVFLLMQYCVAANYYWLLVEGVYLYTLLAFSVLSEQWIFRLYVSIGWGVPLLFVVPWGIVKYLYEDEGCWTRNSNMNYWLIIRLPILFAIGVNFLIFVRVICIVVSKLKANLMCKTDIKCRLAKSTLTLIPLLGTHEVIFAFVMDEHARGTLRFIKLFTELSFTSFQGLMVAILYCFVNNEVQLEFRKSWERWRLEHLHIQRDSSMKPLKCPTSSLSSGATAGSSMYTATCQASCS
- assayComment: cell-based or functional assay
attributeMeasured: GLP1R Internalization EC50
Give the value; after it, write the unit.

Req: Looking for the measured GLP1R Internalization EC50 of YXQGTFTSDFSXXLDKKAQXAFIEYLLEAGPSSGHPPPSGX (L-ornithine at residue 12; synthetic construct; SITE 2: note = 2-Aminoisobutyric Acid; SITE 12: note = L-ornithine; SITE 13: note = alpha-methyl-leucine; SITE 17: note = Lysine is chemically modified through conjugation of the epsilon-amino group of the Lysine side chain with (2-[2-(2-Amino-ethoxy)-ethoxy]-acetyl)2-(gamma-Glu)) [Example 256] , can you help?
Resp: 87.8 nM

Req: Looking for the measured GLP1R Internalization EC50 of YXQGTFTSDFSXXLDKKAQXAFIEYLLEGGHSSGEPPPGGS (synthetic construct; SITE 2: note = 2-Aminoisobutyric Acid; SITE 12: note = L-ornithine; SITE 13: note = alpha-methyl-leucine; SITE 17: note = Lysine is chemically modified through conjugation of the epsilon-amino group of the Lysine side chain with (2-[2-(2-Amino-ethoxy)-ethoxy]-acetyl)-(gamma-Glu)) [Example 164] , can you help?
Resp: 45.9 nM

Req: Looking for the measured GLP1R Internalization EC50 of YXQGTFTSDFSQXLDKKAQXAFIEYLIEXGESSGAPPPSGE (synthetic construct; SITE 2: note = 2-Aminoisobutyric Acid; SITE 13: note = alpha-methyl-leucine; SITE 17: note = Lysine is chemically modified through conjugation of the epsilon-amino group of the Lysine side chain with (2-[2-(2-Amino-ethoxy)-ethoxy]-acetyl)-(gamma-Glu)-CO-(CH2) 16-CO2H; SITE 20: n) [Example 233] , can you help?
Resp: 24.8 nM

Req: Looking for the measured GLP1R Internalization EC50 of YXQGTFTSDFSXXLDKKAQXAFIEYLLEXGPSSGAPPPSGT (synthetic construct; SITE 2: note = 2-Aminoisobutyric Acid; SITE 12: note = L-ornithine; SITE 13: note = alpha-methyl-leucine; SITE 17: note = Lysine is chemically modified through conjugation of the epsilon-amino group of the Lysine side chain with (gamma-Glu)-(2-[2-(2-Amino-ethoxy)-ethoxy]-acetyl)) [Example 276] , can you help?
Resp: 237 nM

Req: Looking for the measured GLP1R Internalization EC50 of YXQGTXTSDXXIXLDXKAQXEFIEXLIEGGPSSGAPPPSGSE (synthetic construct; SITE 2: note = 2-Aminoisobutyric Acid; SITE 6: note = alpha-methyl-2-fluoro-L-phenylalanine; SITE 10: note = 3-(4-Pyridyl)-L-alanine; SITE 11: note = alpha-methyl-L-serine; SITE 13: note = alpha-methyl-leucine; SITE 16: note = L-ornithine; SITE 17: note = Lysine is chemically mo) [Example 712] , can you help?
Resp: 35.3 nM

Req: Looking for the measured GLP1R Internalization EC50 of YXQGTXTSDXSIXLDXKAQXXFIEXLIEGGPSSGEPPPETE (synthetic construct; SITE 2: note = 2-Aminoisobutyric Acid; SITE 6: note = alpha-methyl-2-fluoro-L-phenylalanine; SITE 10: note = 3-(4-Pyridyl)-L-alanine; SITE 13: note = alpha-methyl-leucine; SITE 16: note = L-ornithine; SITE 17: note = Lysine is chemically modified through conjugation of the epsil) [Example 686] , can you help?
Resp: 33.2 nM

Req: Looking for the measured GLP1R Internalization EC50 of YXQGTFTSDFSXXLDKKAQXAFIEYLLEAGPSSGHPPPSGS (synthetic construct; SITE 2: note = 2-Aminoisobutyric Acid; SITE 12: note = L-ornithine; SITE 13: note = alpha-methyl-leucine; SITE 17: note = Lysine is chemically modified through conjugation of the epsilon-amino group of the Lysine side chain with (2-[2-(2-Amino-ethoxy)-ethoxy]-acetyl)2-(gamma-Glu)) [Example 253] , can you help?
Resp: 81.6 nM

These measurements were taken from patent US20240270821A1.
